experiment: logP determination by HPLC on a reversed-phase column (C18); assay type: physicochemical; settings: HPLC-MS method a), reversed-phase column (C18); Table I-T3
valueKind: logP^a)

1) CCc1cc(C(F)(C(F)(F)F)C(F)(F)F)cc(C)c1-n1cc(-c2ccc(Cl)c(C(=O)NCC(F)(F)F)c2)cn1 5.0
2) N#CC1(NC(=O)c2cc(-c3cnn(-c4ccc(OC(F)(F)F)cc4Cl)c3)ccc2Cl)CC1 3.5
3) Cc1cc(C(F)(C(F)(F)F)C(F)(F)F)cc(C)c1-n1cc(-c2ccc(Cl)c(C(=O)NC3(C#N)CC3)c2)cn1 4.2
4) O=C(NCC(F)(F)F)c1cc(-c2cnn(-c3ccc(C(F)(C(F)(F)F)C(F)(F)F)cc3OC(F)(F)F)c2)ccc1Cl 5.0

###

experiment: logP determination by HPLC on a reversed-phase column (C18); type: physicochemical; settings: HPLC-MS, reversed-phase column (C18); Table I-T3

compound	log P
CCN(C(=O)c1cc(-c2cnn(-c3c(Cl)cc(C(F)(F)F)cc3Cl)c2)cnc1Cl)C1CC1 [I-T3-145]	3.8
Cc1ncc(-c2cnn(-c3c(Cl)cc(C(F)(F)F)cc3Cl)c2)cc1C(=O)NC1(C#N)CC1 [I-T3-129]	2.6
CCSc1cc(C(F)(F)F)cc(Cl)c1-n1cc(-c2ccc(Cl)c(C(=O)NC3(C#N)CC3)c2)cn1 [I-T3-170]	3.7
O=C(NC1CC1)c1cc(-c2cnn(-c3c(Br)cc(C(F)(C(F)(F)F)C(F)(F)F)cc3C(F)(F)F)c2)cnc1Cl [I-T3-160]	4.0
CN(C(=O)c1cc(-c2cnn(-c3c(Cl)cc(C(F)(F)F)cc3Cl)c2)cnc1Cl)C1CC1 [I-T3-99]	3.5
N#Cc1cc(C(F)(C(F)(F)F)C(F)(F)F)cc(Cl)c1-n1cc(-c2cnc(Cl)c(C(=O)NC3(C#N)CC3)c2)cn1 [I-T3-207]	3.5
N#CC1(NC(=O)c2cc(-c3cnn(-c4c(Cl)cc(C(F)(C(F)(F)F)C(F)(F)F)cc4I)c3)ccc2Cl)CC1 [I-T3-212]	4.3
CN(C(=O)c1cc(-c2cnn(-c3c(Cl)cc(C(F)(C(F)(F)F)C(F)(F)F)cc3Cl)c2)cnc1Cl)C1CC1 [I-T3-100]	4.4
Cc1cc(C(F)(C(F)(F)F)C(F)(F)F)cc(I)c1-n1cc(-c2ccc(Cl)c(C(=O)NC3CC3)c2)cn1 [I-T3-175]	4.5
CCc1cc(C(F)(C(F)(F)F)C(F)(F)F)ccc1-n1cc(-c2cnc(Cl)c(C(=O)NC3CC3)c2)cn1 [I-T3-104]	4.2
CCS(=O)(=O)c1cc(C(F)(F)F)cc(Cl)c1-n1cc(-c2ccc(Cl)c(C(=O)NC3(C#N)CC3)c2)cn1 [I-T3-183]	3.1
Cc1ncc(-c2cnn(-c3c(Cl)cc(C(F)(C(F)(F)F)C(F)(F)F)cc3C(F)(F)F)c2)cc1C(=O)N(C)C1(C#N)CC1 [I-T3-131]	3.9
CCS(=O)(=O)c1cc(C(F)(C(F)(F)F)C(F)(F)F)cc(S(=O)(=O)CC)c1-n1cc(-c2ccc(Cl)c(C(=O)NC3(C#N)CC3)c2)cn1 [I-T3-198]	3.7
O=C(NC1CC1)c1cc(-c2cnn(-c3c(Cl)cc(C(F)(C(F)(F)F)C(F)(F)F)cc3OC(F)(F)F)c2)ccc1Cl [I-T3-162]	4.6

###

Catalogue of logP^a) readings, one per entry.
assay: logP determination by HPLC on a reversed-phase column (C18); assay type: physicochemical; details: HPLC-MS method a)
valueKind: logP^a)

1) CCc1cc(C(F)(F)C(F)(F)F)cc(C)c1-n1cc(-c2ccc(Cl)c(C(=O)NC3CSC3)c2)cn1 4.6
2) Cc1cc(C(F)(C(F)(F)F)C(F)(F)F)cc(C)c1-n1cc(-c2cc(C(=O)NC3(C#N)CC3)ccc2F)cn1 4.3
3) Cc1cc(C(F)(C(F)(F)F)C(F)(F)F)cc(C(F)(F)F)c1-n1cc(-c2ccc(Cl)c(C(=O)NC3CSC3)c2)cn1 4.7
4) O=C(NC1CC1)c1cc(-c2cnn(-c3c(Cl)cc(C(F)(C(F)(F)F)C(F)(F)F)cc3Cl)c2)cnc1Cl 3.8

###

test: logP determination by HPLC on a reversed-phase column (C18); format: physicochemical; conditions: HPLC-MS method a), reversed-phase column (C18)
valueKind: logP^a)

molecule	valueKind	reportedMeasurement
N#CC1(NC(=O)c2cc(-c3cnn(-c4ncc(C(F)(F)F)cc4C(F)(F)F)c3)ccc2Cl)CC1 [I-T3-149]	logP^a)	3.5
Cc1cc(C(F)(C(F)(F)F)C(F)(F)F)cc(C)c1-n1cc(-c2cnc(C)c(C(=O)N(C)C3CC3)c2)cn1 [I-T3-120]	logP^a)	3.6
Cc1cc(C(F)(C(F)(F)F)C(F)(F)F)cc(C(F)(F)F)c1-n1cc(-c2cnc(Cl)c(C(=O)NC3(C#N)CC3)c2)cn1 [I-T3-108]	logP^a)	4.0
CC[S+]([O-])c1cc(C(F)(C(F)(F)F)C(F)(F)F)cnc1-n1cc(-c2ccc(Cl)c(C(=O)NC3(C#N)CC3)c2)cn1 (stereo not shown) [I-T3-153]	logP^a)	3.7
Cc1ncc(-c2cnn(-c3c(Cl)cc(C(F)(C(F)(F)F)C(F)(F)F)cc3C(F)(F)F)c2)cc1C(=O)N(C)C1CC1 [I-T3-130]	logP^a)	3.8
O=C(NC1CC1)c1cc(-c2cnn(-c3c(Br)cc(C(F)(C(F)(F)F)C(F)(F)F)cc3C(F)(F)F)c2)cnc1Cl [I-T3-160]	logP^a)	4.0
Cc1ncc(-c2cnn(-c3c(Cl)cc(C(F)(F)F)cc3Cl)c2)cc1C(=O)NC1(C#N)CC1 [I-T3-129]	logP^a)	2.6

###

test: logP determination by HPLC on a reversed-phase column (C18); assay type: physicochemical; settings: HPLC-MS, reversed-phase column (C18); Table I-T3
valueKind: log P

1. CN(C(=O)c1cc(-c2cnn(-c3c(Cl)cc(C(F)(C(F)(F)F)C(F)(F)F)cc3C#N)c2)cnc1Cl)C1CC1 3.9
2. CCSc1cc(C(F)(C(F)(F)F)C(F)(F)F)cc(C)c1-n1cc(-c2ccc(Cl)c(C(=O)NC3CC3)c2)cn1 4.6
3. CCc1cc(C(F)(C(F)(F)F)C(F)(F)F)ccc1-n1cc(-c2cnc(Cl)c(C(=O)NC3(C#N)CC3)c2)cn1 4.1
4. O=C(NC1CC1)c1cc(-c2cnn(-c3c(Cl)cc(C(F)(C(F)(F)F)C(F)(F)F)cc3I)c2)ccc1Cl 4.4
5. Cc1cc(C(F)(C(F)(F)F)C(F)(F)F)cc(C(F)(F)F)c1-n1cc(-c2cnc(Cl)c(C(=O)NC3CC3)c2)cn1 4.0
6. CCSc1cc(C(F)(F)F)cc(Cl)c1-n1cc(-c2ccc(Cl)c(C(=O)NC3CC3)c2)cn1 3.9
7. CSc1cc(C(F)(C(F)(F)F)C(F)(F)F)cnc1-n1cc(-c2ccc(Cl)c(C(=O)NC3(C#N)CC3)c2)cn1 4.3

###

test: logP determination by HPLC on a reversed-phase column (C18); assay type: physicochemical; settings: HPLC-MS, reversed-phase column (C18); Table I-T3
Use 4 as the dividing line for log P, with the line itself on the Yes side and lower values as No.

1. N#CC1(NC(=O)c2cc(-c3cnn(-c4ncc(C(F)(C(F)(F)F)C(F)(F)F)cc4SCC(F)(F)F)c3)ccc2Cl)CC1 Yes
2. CCS(=O)(=O)c1cc(C(F)(F)F)cc(C#N)c1-n1cc(-c2ccc(Cl)c(C(=O)NC3CC3)c2)cn1 No
3. Cc1cc(C(F)(C(F)(F)F)C(F)(F)F)cc(C(F)(F)F)c1-n1cc(-c2cnc(Cl)c(C(=O)N(C)C3CC3)c2)cn1 Yes
4. O=C(NC1CC1)c1cc(-c2cnn(-c3c(F)cc(C(F)(F)F)cc3Cl)c2)ccc1Cl No
5. CCS(=O)(=O)c1cc(C(F)(F)F)cc(C#N)c1-n1cc(-c2ccc(Cl)c(C(=O)NC3(C#N)CC3)c2)cn1 No
6. COc1ncc(-c2cnn(-c3c(C)cc(C(F)(C(F)(F)F)C(F)(F)F)cc3C)c2)cc1C(=O)NC1CC1 Yes
7. CCSc1cc(C(F)(F)F)cc(C#N)c1-n1cc(-c2ccc(Cl)c(C(=O)NC3(C#N)CC3)c2)cn1 No
8. CN(C(=O)c1cc(-c2cnn(-c3c(Cl)cc(C(F)(C(F)(F)F)C(F)(F)F)cc3OC(F)(F)F)c2)ccc1Cl)C1CC1 Yes
9. NC(=O)C1(NC(=O)c2cc(-c3cnn(-c4c(F)c(F)c(C(F)(F)F)c(F)c4F)c3)ccc2Cl)CC1 No
10. Cc1ncc(-c2cnn(-c3c(Cl)cc(C(F)(C(F)(F)F)C(F)(F)F)cc3C(F)(F)F)c2)cc1C(=O)NC1(C#N)CC1 No
